biological target: human Caspase 5 (CASP5), CASP5 (gene 838); assay: NVS_ENZ_hCASP5: NovaScreen (NVS) Enzymatic Assay for human Caspase 5 (CASP5) (AID 2283137)
Records with an inconclusive call do not appear. Activity calls are given as the source filed them. The calls were made as follows: active = hit-call score of the fitted dose curve at least 0.9, where 1 is the maximum; inconclusive = response in the unintended direction; inactive = score below 0.9.
Form entry, call: pick from 1 (yes) = active, 0 (no) = inactive

Examples with answers:
CCC(O)=C1C(=O)CC(C(=O)O)CC1=O (centres undefined) ... 0 (no)
N[C@@H](Cc1cc(I)c(Oc2ccc(O)c(I)c2)c(I)c1)C(=O)O ... 1 (yes)
S=C([S-])NCCNC(=S)[S-].[Mn+2] ... 1 (yes)

Turning now to a further record.
Q) Which result was noted for this molecule in the test: "O=C(O)C1(C(=O)Nc2ccc(Cl)cc2Cl)CC1"
A) 1 (yes)

The measured values listed here are drawn from PubChem BioAssay (EPA / NIEHS).
